# experimental_target: Menin-MLL (Homo sapiens, UniProt O00255)
# Construct: His-Menin (M1-L615 end); purchased BIORTUS BP9210
# Sequence (O00255 1-615 isoform O00255-1): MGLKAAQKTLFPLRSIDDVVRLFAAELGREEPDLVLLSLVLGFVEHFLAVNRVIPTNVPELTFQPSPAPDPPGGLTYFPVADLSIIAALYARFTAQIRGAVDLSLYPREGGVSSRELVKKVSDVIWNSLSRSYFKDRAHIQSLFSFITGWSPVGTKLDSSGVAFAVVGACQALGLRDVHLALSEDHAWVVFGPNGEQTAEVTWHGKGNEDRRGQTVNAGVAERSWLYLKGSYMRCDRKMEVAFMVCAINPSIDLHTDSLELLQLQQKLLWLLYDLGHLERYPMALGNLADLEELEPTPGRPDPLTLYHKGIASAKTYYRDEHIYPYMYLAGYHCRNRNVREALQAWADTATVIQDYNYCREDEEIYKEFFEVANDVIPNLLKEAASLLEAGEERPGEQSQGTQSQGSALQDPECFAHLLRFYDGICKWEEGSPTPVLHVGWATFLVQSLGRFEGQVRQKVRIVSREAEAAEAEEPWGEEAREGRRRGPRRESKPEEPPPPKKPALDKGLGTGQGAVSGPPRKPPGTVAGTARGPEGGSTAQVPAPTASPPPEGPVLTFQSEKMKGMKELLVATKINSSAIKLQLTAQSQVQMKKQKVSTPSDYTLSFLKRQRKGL
# protocol_details: Inhibitory activity against Menin-MLL binding (fluorescence polarization)
# experimental_context: Menin-MLL IC50, fluorescence polarization; 150 nM His-Menin, 15 nM FITC-MLL; 25°C for 60 min
reported_endpoint: IC50 (nM)
Dear colleague, please return just the value in nM, with no unit written.

Some compounds with known IC50 results, for comparison:
CC[C@H](C)[C@H](NC)C(=O)N1CC(c2cc(-c3ccc(F)cc3C(=O)N(CC)C(C)C)c3c(F)nc(C)n3c2)C1 [Example 316]    99
COCCN(C(=O)c1cc(F)ccc1-c1cc(C2CN([C@@H](CCCN3C[C@H]4C[C@@H]3CO4)C(C)C)C2)cn2c(C)ncc12)C(C)C [Example 467-2]    54

Return reported IC50; argument: CCN(C(=O)c1cc(F)ccc1-c1cc(C2CCN(C[C@H]3CC[C@H](NS(=O)(=O)CC)CC3)C2)cn2c(C)ncc12)C(C)C (mixture of isomers) [Example 30]
6
